# Substrate: BHET
# assaySetup: 120 h
observedProperty: plate clearing

protein	result
unnamed (protein) MRDPPEYGTQTLHYPTDADPPFAAIAIVPGFVSPESSIIEWGPFLASHGIVVLTIGTNSGSDSPEIRSTALLAALETIKSEHARAGSPIEGKIDTTRLAVGGWSMGGGGTLLTITAHPELKAGLAICPWYTNAFAFAGNTVPVIMFAGTADVLAGGMSQGFYDAIPASTPKMLFEIAGADHFYANNPLMPNVQVGLYGLSWLKVFLEGDDRYRQFLLGPPQNASDFRTTVQ	not clears the plate
unnamed (protein) MKTTTIIKSTLCAFTLTFSLSAFSGGGGGGGGGNNGNLPPPDTCNTNCGYEIGPNPTLGFLQASQGPLPVSSTNVSSSVNGFGGGTIYYPSNISDEMAAISIAPGFTNTQSAVAWWGPILASHGFVVITINTNSRFDQPESRSRQLDSALSYLISEGDRGSSPISGLVDENRLATMGFSMGGGGSLRSASRNRLSAAVPLAPWSTGSNNFDDIGVPTLIMACENDTTARVNTHASPFYNAIPGSTDKAFMEINNGPHNCANGESSTNRSLLSTYGVSWMKRFLDKDRRYNQFLCGPNHEANSRISEYRDTCSYG	not clears the plate
